Target: human MC4R (Homo sapiens)
Construct: expressed in transfected cells
Assay: Functional cAMP assay (CisBio HTRF) in BHK cells expressing human MC4R
Type: cell-based
Positions of bridges follow the written chain, without caps; N, C: chain ends. Non-standard residues stand in square brackets, D forms with d. Residues, ends and D or L forms follow the SMILES beside them. Orn = NCCC[C@H](N)C(=O)O; Thz = O=C(O)[C@@H]1CSCN1
ASSAY_METRIC: pEC50
Hey, just a heads up that pEC50 is the negative log base 10 of the concentration in molar.

Req: I would be grateful if you could share the reported pEC50 for C[C@@H]1NC(=O)[C@@H]2CSSC[C@H](NC(=O)[C@H](CCCNC(=N)N)NC(=O)[C@H](CCCN)NC(=O)[C@H](CCC(=O)O)NC(=O)[C@H](Cc3c[nH]cn3)NC1=O)C(=O)N1CSC[C@H]1C(=O)N[C@@H](Cc1c[nH]cn1)C(=O)N[C@H](Cc1ccccc1)C(=O)N[C@@H](Cc1c[nH]cn1)C(=O)N[C@@H](Cc1c[nH]c3ccccc13)C(=O)N2 [Chem. 120] (cyclo(AHE[Orn]RC[Thz]H[dF]HWC); disulfide 6-12) .
Resp: 10.10

Req: Consider the molecule shown here: C[C@@H]1NC(=O)[C@@H]2CSSC[C@H](NC(=O)[C@H](Cc3c[nH]c4ccccc34)NC(=O)[C@H](CCCNC(=N)N)NC(=O)[C@@H](Cc3ccccc3)NC(=O)[C@H](Cc3c[nH]cn3)NC1=O)C(=O)N[C@@H](C)C(=O)N[C@@H](Cc1c[nH]cn1)C(=O)N[C@H](Cc1ccccc1)C(=O)N[C@@H](CCCNC(=N)N)C(=O)N[C@@H](Cc1c[nH]c3ccccc13)C(=O)N2 What is its recorded pEC50?
Resp: 11.00

Req: // lookup pEC50 for C[C@@H]1NC(=O)[C@@H]2CSSC[C@H](NC(=O)[C@H](CCCNC(=N)N)NC(=O)[C@H](CCCNC(=N)N)NC(=O)[C@H](CCC(=O)O)NC(=O)[C@H](CCCNC(=N)N)NC1=O)C(=O)N1CSC[C@H]1C(=O)N[C@@H](Cc1c[nH]cn1)C(=O)N[C@H](Cc1ccccc1)C(=O)N[C@@H](Cc1c[nH]cn1)C(=O)N[C@@H](Cc1c[nH]c3ccccc13)C(=O)N2 [Chem. 113] (cyclo(ARERRC[Thz]H[dF]HWC); disulfide 6-12)
Resp: 10.70

---

Would you kindly list EC50 for each of these compounds?
Biological target: human MC4R (Homo sapiens, UniProt P32245)
Construct: expressed in transfected cells
Sequence (P32245 whole entry): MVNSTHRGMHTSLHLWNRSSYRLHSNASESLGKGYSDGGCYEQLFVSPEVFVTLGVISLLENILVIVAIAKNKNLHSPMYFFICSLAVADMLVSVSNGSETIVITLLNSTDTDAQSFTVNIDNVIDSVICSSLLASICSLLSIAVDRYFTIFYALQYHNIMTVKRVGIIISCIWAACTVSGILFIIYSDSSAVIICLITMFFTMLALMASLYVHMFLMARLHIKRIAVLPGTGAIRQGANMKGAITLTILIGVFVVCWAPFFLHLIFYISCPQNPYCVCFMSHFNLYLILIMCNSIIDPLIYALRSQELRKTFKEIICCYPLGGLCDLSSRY
Test: Functional cAMP assay (CisBio HTRF) in BHK cells expressing human MC4R
Type: cell-based
Positions of bridges follow the written chain, without caps; N, C: chain ends. Non-standard residues stand in square brackets, D forms with d. Residues, ends and D or L forms follow the SMILES beside them. Hyp = O=C(O)[C@@H]1C[C@@H](O)CN1; Thz = O=C(O)[C@@H]1CSCN1

Req: Fill in the blank: the reported EC50 of C[C@H]1NC(=O)[C@@H]2CSSC[C@H](NC(=O)[C@H](Cc3c[nH]c4ccccc34)NC(=O)[C@H](CCCNC(=N)N)NC(=O)[C@@H](Cc3ccccc3)NC(=O)[C@H](Cc3c[nH]cn3)NC1=O)C(=O)N[C@H](C)C(=O)N[C@@H](Cc1c[nH]cn1)C(=O)N[C@H](Cc1ccccc1)C(=O)N[C@@H](CCCNC(=N)N)C(=O)N[C@@H](Cc1c[nH]c3ccccc13)C(=O)N2 is ____.
Resp: 0.05 nM

Req: Which EC50 value belongs to C[C@@H]1NC(=O)[C@@H]2CSSC[C@H](NC(=O)[C@H](CCCNC(=N)N)NC(=O)[C@H](CCCCN)NC(=O)[C@H](CCCCN)NC(=O)[C@H](CCCCN)NC1=O)C(=O)N1CSC[C@H]1C(=O)N[C@@H](Cc1c[nH]cn1)C(=O)N[C@H](Cc1ccccc1)C(=O)N[C@@H](Cc1c[nH]cn1)C(=O)N[C@@H](Cc1c[nH]c3ccccc13)C(=O)N2 [Chem. 100] (cyclo(AKKKRC[Thz]H[dF]HWC); disulfide 6-12) ?
Resp: 0.02 nM

Req: GET /values?readout=EC50&item= N=C(N)NCCC[C@@H]1NC(=O)[C@@H](Cc2ccccc2)NC(=O)[C@H](Cc2c[nH]cn2)NC(=O)[C@@H]2C[C@@H](O)CN2C(=O)[C@@H]2CSSC[C@H](NC(=O)[C@H](Cc3c[nH]c4ccccc34)NC1=O)C(=O)N1C[C@H](O)C[C@H]1C(=O)N[C@@H](Cc1c[nH]cn1)C(=O)N[C@H](Cc1ccccc1)C(=O)N[C@@H](CCCNC(=N)N)C(=O)N[C@@H](Cc1c[nH]c3ccccc13)C(=O)N2 [Chem. 32] (cyclo(C[Hyp]H[dF]RWC[Hyp]H[dF]RW); disulfide 1-7)
Resp: 0.12 nM
